Hey, just so you know, these numbers are from patent US11767305B2.

target: human 5-HT transporter (hSERT) (Homo sapiens (Human), UniProt P31645); assay: Human serotonin transporter  assay ([3H]imipramine radioligand, CHO cells); type: binding; settings: SERT IC50 (μM), 2 nM [3H]imipramine
Response field label takes true when IC50 is strictly below 4 µM and false in all other cases.

Enquiry: Criterion: IC50 strictly below 4 µM. Is it met by CNC(C)C(=O)c1ccc2occc2c1 (single isomer, unassigned; (-)) [(−)-BK-5-MAPB] ?
Return: false

Enquiry: Criterion: IC50 strictly below 4 µM. Is it met by `CN[C@H](C)Cc1ccc2occc2c1` ?
Return: true

Enquiry: Criterion: IC50 strictly below 4 µM. Is it met by `CN[C@H](C)Cc1ccc2ccoc2c1` ?
Return: false

Enquiry: Criterion: IC50 strictly below 4 µM. Is it met by CCC(NC)C(=O)c1ccc2ccoc2c1 (single isomer, unassigned; (+)) [(+)-BK-6-MBPB] ?
Return: false

Enquiry: Criterion: IC50 strictly below 4 µM. Is it met by `CN[C@@H](C)Cc1ccc2occc2c1` ?
Return: true

Enquiry: Criterion: IC50 strictly below 4 µM. Is it met by CNC(C)C(=O)c1ccc2ccoc2c1 (single isomer, unassigned; (-)) [(−)-BK-6-MAPB] ?
Return: false

Enquiry: Criterion: IC50 strictly below 4 µM. Is it met by CCC(NC)C(=O)c1ccc2occc2c1 (single isomer, unassigned; (+)) [(+)-BK-5-MBPB] ?
Return: false

Enquiry: Criterion: IC50 strictly below 4 µM. Is it met by CCC(NC)C(=O)c1ccc2occc2c1 (single isomer, unassigned; (-)) [(−)-BK-5-MBPB] ?
Return: true

Enquiry: Criterion: IC50 strictly below 4 µM. Is it met by CCC(NC)C(=O)c1ccc2ccoc2c1 (single isomer, unassigned; (-)) [(−)-BK-6-MBPB] ?
Return: true

Enquiry: Criterion: IC50 strictly below 4 µM. Is it met by `CN[C@@H](C)Cc1ccc2ccoc2c1` ?
Return: false

Enquiry: Criterion: IC50 strictly below 4 µM. Is it met by CNC(C)C(=O)c1ccc2occc2c1 (single isomer, unassigned; (+)) [(+)-BK-5-MAPB] ?
Return: false
